Origin of measurements: ChEMBL document CHEMBL5724914

experiment: The drug is tested on Z-028 corresponding to mouse gut metagenome with ENA study accession number: PRJEB37062 and ENA sample accession number: ERS12561827 for biotransformation under anaerobic condition. The drug concentrations were measured over 9 timepoints collected between 0 and 24 hours of incubation by liquid-chromatography-coupled mass spectrometry (LC–MS); details: 2 µM; note: call rule not given here
QUANTITY: Bacterial Biotransformation

Consider the following illustrative entries.
1. CN(C)CCc1c[nH]c2ccc(Cn3cncn3)cc12.O=C(O)c1ccccc1 [RIZATRIPTAN BENZOATE]
Compound NOT metabolized
2. NC12CC3CC(CC(C3)C1)C2
Compound NOT metabolized
3. NC(CO)(CO)CO.O=C(c1ccccc1)c1ccc2n1CCC2C(=O)O (centres undefined)
Compound NOT metabolized
4. O=C(NCc1ccccc1)OCCO [BURAMATE]
Compound NOT metabolized
5. CN(C)C(=O)C(CCN1CCC(O)(c2ccc(Cl)cc2)CC1)(c1ccccc1)c1ccccc1 [LOPERAMIDE]
Compound metabolized
6. CN(C)CC(c1ccc(O)cc1)C1(O)CCCCC1.O=C(O)CCC(=O)O (centres undefined) [DESVENLAFAXINE SUCCINATE]
Compound NOT metabolized

Q: Looking for the measured Bacterial Biotransformation of CCN(CC)CCOCCOC(=O)C1(c2ccccc2)CCCC1.O=C(O)CC(O)(CC(=O)O)C(=O)O [CARBETAPENTANE CITRATE] , can you help?
A: Compound NOT metabolized

Q: Check CN1C(C(=O)Nc2ccccn2)=C(O)c2sccc2S1(=O)=O too.
A: Compound NOT metabolized

Q: Check CC(C)OC(=O)C(C)(C)Oc1ccc(C(=O)c2ccc(Cl)cc2)cc1 [FENOFIBRATE] too.
A: Compound metabolized

* * *

experiment: The drug is tested on WLS-350 corresponding to human gut metagenome with ENA study accession number: PRJEB37062 and ENA sample accession number: ERS12561789 for biotransformation under anaerobic condition. The drug concentrations were measured over 9 timepoints collected between 0 and 24 hours of incubation by liquid-chromatography-coupled mass spectrometry (LC–MS); details: 2 µM
QUANTITY: Bacterial Biotransformation

1) CN(C(=O)CN(CCO)CC(=O)N(C)C(C)(C)Cc1ccccc1)C(C)(C)Cc1ccccc1 [OXETHAZAINE]
Compound metabolized
2) COc1cc2nc(N(C)CCCNC(=O)C3CCCO3)nc(N)c2cc1OC (stereo unspecified) [ALFUZOSIN]
Compound metabolized
3) CNC(=C[N+](=O)[O-])NCCSCc1ccc(CN(C)C)o1 [RANITIDINE]
Compound NOT metabolized
4) COC(=O)[C@H]1[C@H]2C[C@@H]3c4[nH]c5cc(OC)ccc5c4CCN3C[C@H]2C[C@@H](OC(=O)c2cc(OC)c(OC)c(OC)c2)[C@@H]1OC [RESERPINE]
Compound NOT metabolized
5) Fc1ccc([C@@H]2CCNC[C@H]2COc2ccc3c(c2)OCO3)cc1 [PAROXETINE]
Compound metabolized

Q: Looking for the measured Bacterial Biotransformation of CN1C(=O)CC(C)(c2ccccc2)C1=O (stereo unspecified) [METHSUXIMIDE] , can you help?
A: Compound NOT metabolized

Q: Check CC(C)(Oc1ccc(CCNC(=O)c2ccc(Cl)cc2)cc1)C(=O)O [BEZAFIBRATE] too.
A: Compound metabolized

Q: Check COc1c(C)c2c(c(O)c1C/C=C(\C)CCC(=O)OCCN1CCOCC1)C(=O)OC2 [MYCOPHENOLATE MOFETIL] too.
A: Compound metabolized

Q: Check CN1CCOC(c2ccccc2)c2ccccc2C1 (stereo unspecified) [NEFOPAM] too.
A: Compound metabolized

Q: Check CNC(=C[N+](=O)[O-])NCCSCc1csc(CN(C)C)n1 [NIZATIDINE] too.
A: Compound NOT metabolized

Q: Check Br.CN(C)CCCC1(c2ccc(F)cc2)OCc2cc(C#N)ccc21 (stereo unspecified) [CITALOPRAM HYDROBROMIDE] too.
A: Compound NOT metabolized

Q: Check CCN1CCCC1CNC(=O)c1cc(S(N)(=O)=O)ccc1OC (stereo unspecified) [SULPIRIDE] too.
A: Compound NOT metabolized

Q: Check CN1CCN(C2=Nc3cc(Cl)ccc3Nc3ccccc32)CC1 [CLOZAPINE] too.
A: Compound metabolized

* * *

experiment: The drug is tested on WLS-310 corresponding to human gut metagenome with ENA study accession number: PRJEB37062 and ENA sample accession number: ERS12561785 for biotransformation under anaerobic condition. The drug concentrations were measured over 9 timepoints collected between 0 and 24 hours of incubation by liquid-chromatography-coupled mass spectrometry (LC–MS); conditions: 2 µM
QUANTITY: Bacterial Biotransformation

Consider the following illustrative entries.
1. COC(=O)C1=C(C)NC(C)=C(C(=O)OC(C)C)C1c1cccc2nonc12 (stereo not drawn)
Compound metabolized
2. CCc1nc(N)nc(N)c1-c1ccc(Cl)cc1
Compound NOT metabolized
3. CNC(=C[N+](=O)[O-])NCCSCc1csc(CN(C)C)n1
Compound metabolized
4. CN(C)CCc1c[nH]c2ccc(Cn3cncn3)cc12.O=C(O)c1ccccc1 [RIZATRIPTAN BENZOATE]
Compound NOT metabolized
5. Cc1nc(-c2ccc(OCC(C)C)c(C#N)c2)sc1C(=O)O
Compound metabolized
6. CC(C)NCC(O)COc1ccc(COCCOC(C)C)cc1.CC(C)NCC(O)COc1ccc(COCCOC(C)C)cc1.O=C(O)/C=C/C(=O)O (stereo not drawn) [BISOPROLOL FUMARATE]
Compound NOT metabolized
7. CC(CN1c2ccccc2Sc2ccccc21)N(C)C (stereo not drawn)
Compound metabolized
8. CCCc1nn(C)c2c(=O)[nH]c(-c3cc(S(=O)(=O)N4CCN(C)CC4)ccc3OCC)nc12.O=C(O)CC(O)(CC(=O)O)C(=O)O [SILDENAFIL CITRATE]
Compound metabolized
9. C#C[C@]1(O)CC[C@H]2[C@@H]3CCC4=CC(=O)CC[C@@H]4[C@H]3CC[C@@]21CC
Compound metabolized
10. CN(C)CCC=C1c2ccccc2C=Cc2ccccc21
Compound metabolized

Q: Looking for the measured Bacterial Biotransformation of CN/C(=N/CCSCc1nc[nH]c1C)NC#N , can you help?
A: Compound metabolized

Q: Check Clc1ccc(Cn2c(CN3CCCC3)nc3ccccc32)cc1 too.
A: Compound metabolized

Q: Check CCC1(c2ccc(N)cc2)CCC(=O)NC1=O (stereo not drawn) [AMINOGLUTETHIMIDE] too.
A: Compound NOT metabolized

Q: Check CN1CCN(C2=Nc3cc(Cl)ccc3Nc3ccccc32)CC1 too.
A: Compound metabolized

Q: Check CC(CN(C)C)CN1c2ccccc2CCc2ccccc21.O=C(O)/C=C\C(=O)O (stereo not drawn) [TRIMIPRAMINE MALEATE] too.
A: Compound metabolized

Q: Check CCCCc1nc(Cl)c(CO)n1Cc1ccc(-c2ccccc2-c2nn[nH]n2)cc1 too.
A: Compound metabolized

Q: Check Fc1ccc([C@@H]2CCNC[C@H]2COc2ccc3c(c2)OCO3)cc1 too.
A: Compound metabolized

Q: Check COc1ccccc1N1CCN(CC(O)COc2cccc3ccccc23)CC1 (stereo not drawn) too.
A: Compound NOT metabolized

* * *

test: The drug is tested on Z-001 corresponding to mouse gut metagenome with ENA study accession number: PRJEB37062 and ENA sample accession number: ERS12561801 for biotransformation under anaerobic condition. The drug concentrations were measured over 9 timepoints collected between 0 and 24 hours of incubation by liquid-chromatography-coupled mass spectrometry (LC–MS); settings: 2 µM
QUANTITY: Bacterial Biotransformation

Consider the following illustrative entries.
1. COc1ccc2[nH]c([S+]([O-])Cc3ncc(C)c(OC)c3C)nc2n1 (stereo unspecified)
Compound metabolized
2. O=C(CCCN1CCC(O)(c2ccc(Cl)cc2)CC1)c1ccc(F)cc1
Compound NOT metabolized
3. CCCC1O[C@@H]2C[C@H]3[C@@H]4CCC5=CC(=O)C=C[C@]5(C)[C@H]4[C@@H](O)C[C@]3(C)[C@]2(C(=O)CO)O1 (stereo partly specified) [BUDESONIDE]
Compound NOT metabolized
4. COC(=O)C1=C(C)NC(C)=C(C(=O)OC(C)C)C1c1cccc2nonc12 (stereo unspecified)
Compound NOT metabolized
5. OCCN1CCN(CCCN2c3ccccc3Sc3ccc(C(F)(F)F)cc32)CC1
Compound metabolized
6. CCOC(=O)[C@H](CCc1ccccc1)N[C@@H](C)C(=O)N1[C@H](C(=O)O)C[C@H]2CCCC[C@@H]21
Compound NOT metabolized
7. c1ccc([C@H]2CN3CCSC3=N2)cc1
Compound NOT metabolized
8. CCN(CC)CC#CCOC(=O)C(O)(c1ccccc1)C1CCCCC1.Cl (stereo unspecified) [OXYBUTYNIN CHLORIDE]
Compound metabolized

We next turn to a different compound, shown below.
Q: Looking for the measured Bacterial Biotransformation of Br.CN(C)CCCC1(c2ccc(F)cc2)OCc2cc(C#N)ccc21 (stereo unspecified) [CITALOPRAM HYDROBROMIDE] , can you help?
A: Compound NOT metabolized
